FYI, the data here is from ChEMBL document CHEMBL3822440.

system: HT-29; assay: Cytotoxicity against human HT-29 cells assessed as growth inhibition after 72 hrs by MTT assay; type: functional, cell-based; conditions: HT-29, 72 h
pIC50: −log10 of the molar value.
Respond with True for pIC50 values of 4 and above, False for values below.

>  <smiles-representation>
CC1(C)CC[C@]2(C(=O)O)CC[C@]3(C)C(=CC[C@@H]4[C@@]5(C)CC[C@H](O)C(C)(C)[C@@H]5CC[C@]43C)[C@@H]2C1

>  <group-label>
False

$$$$
>  <smiles-representation>
CC(=O)O[C@H]1CC[C@]2(C)[C@H]3CC=C4[C@@H]5CC(C)(C)CC[C@]5(C(=O)NCCCOCCOCCOCCCN)CC[C@@]4(C)[C@]3(C)CC[C@H]2C1(C)C

>  <group-label>
False

$$$$
>  <smiles-representation>
CC1(C)CC[C@]2(C(=O)O)CC[C@]3(C)C(=CC[C@@H]4[C@@]5(C)C[C@@H](O)[C@H](O)C(C)(C)[C@@H]5CC[C@]43C)[C@@H]2C1

>  <group-label>
True

$$$$
>  <smiles-representation>
CC1(C)CC[C@]2(C(=O)OCc3ccccc3)CC[C@]3(C)C(=CC[C@@H]4[C@@]5(C)CC[C@H](O)C(C)(C)[C@@H]5CC[C@]43C)[C@@H]2C1

>  <group-label>
True

$$$$
>  <smiles-representation>
CC(=O)O[C@@H]1C[C@]2(C)[C@H]3CC=C4[C@@H]5CC(C)(C)CC[C@]5(C(=O)O)CC[C@@]4(C)[C@]3(C)CC[C@H]2C(C)(C)[C@H]1OC(C)=O

>  <group-label>
True

$$$$
>  <smiles-representation>
COCCOCCOCC(=O)O[C@H]1CC[C@]2(C)[C@H]3CC=C4[C@@H]5CC(C)(C)CC[C@]5(C(=O)O)CC[C@@]4(C)[C@]3(C)CC[C@H]2C1(C)C

>  <group-label>
True

$$$$
>  <smiles-representation>
CC(=O)O[C@@H]1C[C@]2(C)[C@H]3CC=C4[C@@H]5CC(C)(C)CC[C@]5(C(=O)NCCCOCCOCCOCCCN)CC[C@@]4(C)[C@]3(C)CC[C@H]2C(C)(C)[C@H]1OC(C)=O

>  <group-label>
False

$$$$
